# System: Wnt induced calcium release
# procedure details: Wnt induced [Ca2+]i release after preincubation with thapsigargin or membrane potential regulating compounds
# Format: cell-based
# run conditions: preincubation 5 min; Wnt 9B 0.1 μg/ml as example; CsCl 5 mM; CdCl2 1 mM; TEA 10 mM; Amiodarone 75 μM; Tolbutamide 1 mM; Isradipine 100 μM; Nifedipine 1 mM; Minoxidil 25 μM; Atenolol 37.5 μM; Propanolol 50 μM; Furosemide 150 μM
experimental readout: Wnt ligand induced calcium release after preincubation with MPRC (FIG. 16)

{"molecule": "[Cl-].[Cs+]", "observed result": "inhibited"}
{"molecule": "CC(C)NCC(O)COc1cccc2ccccc12 (stereo not shown)", "observed result": "inhibited"}
{"molecule": "CC(C)NCC(O)COc1ccc(CC(N)=O)cc1 (stereo not shown)", "observed result": "inhibited"}
{"molecule": "[Cl][Cd][Cl]", "observed result": "inhibited"}
{"molecule": "COC(=O)C1=C(C)NC(C)=C(C(=O)OC(C)C)C1c1cccc2nonc12 (stereo not shown)", "observed result": "inhibited"}
{"molecule": "CCCCc1oc2ccccc2c1C(=O)c1cc(I)c(OCCN(CC)CC)c(I)c1", "observed result": "inhibited"}

# input Entry CCCCNC(=O)NS(=O)(=O)c1ccc(C)cc1 [Tolbutamide] : reported Wnt ligand induced calcium release after preincubation with MPRC (FIG. 16) = ?
# output inhibited

The reported numbers originate from patent US20160271157A1.
